System: hTERT-HMEC;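 also: secreted proteins added to cultured cells, EdU pulse at the end, nuclei found by Hoechst imaging, EdU status from nuclear versus surrounding ring intensity ratio, PBS as neutral control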
Assay: percentage of EdU-negative (G0-arrested) nuclei per well, 72 h; higher = more G0 arrest
Settings: protein concentration 0.0225 µM; reference: sequence is the full UniProt precursor, the tested protein was the secreted form or ectodomain
outcome.measure: percentage of EdU-negative
Numeric answer plus unit only.

Query block: Name the recorded percentage of EdU-negative for MAGRLLGKALAAVSLSLALASVTIRSSRCRGIQAFRNSFSSSWFHLNTNVMSGSNGSKENSHNKARTSPYPGSKVERSQVPNEKVGWLVEWQDYKPVEYTAVSVLAGPRWADPQISESNFSPKFNEKDGHVERKSKNGLYEIENGRPRNPAGRTGLVGRGLLGRWGPNHAADPIITRWKRDSSGNKIMHPVSGKHILQFVAIKRKDCGEWAIPGGMVDPGEKISATLKREFGEEALNSLQKTSAEKREIEEKLHKLFSQDHLVIYKGYVDDPRNTDNAWMETEAVNYHDETGEIMDNLMLEAGDDAGKVKWVDINDKLKLYASHSQFIKLVAEKRDAHWSEDSEADCHAL [Q9BW91] .
Result block: 4.99%

All values here come from the supplement of paper PMC11316812.
